- system.tested: T1, P7A-bN
- T1 chain: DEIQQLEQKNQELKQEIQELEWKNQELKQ
- assay.overview: two-hybrid library CCNG1;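 further: natural log of median RNA to DNA barcode read ratio; higher means stronger binding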
I'd be grateful if you could share measured interaction score for these entries.

Req: Identify measured interaction score corresponding to DENQQLEQEIQELEQEIQELEWKNQELKQ [P11A-bN]
Resp: -0.868

Req: Identify measured interaction score corresponding to DEIQQLEQKNQELKQEIQELEWKNQELKQ [P7A-bN]
Resp: 0.344

Req: Identify measured interaction score corresponding to DKNQQLKQENQELEQKIQELKWKIQELKQ [P10A-bN]
Resp: 0.528
